Target: human JAK3 (a.a. 781-1124) (Homo sapiens, UniProt P52333)
Construct: JAK3 (a.a. 781-1124); His tag (N); made in house; host or cells: insect cells (baculovirus)
Sequence (P52333 781-1124): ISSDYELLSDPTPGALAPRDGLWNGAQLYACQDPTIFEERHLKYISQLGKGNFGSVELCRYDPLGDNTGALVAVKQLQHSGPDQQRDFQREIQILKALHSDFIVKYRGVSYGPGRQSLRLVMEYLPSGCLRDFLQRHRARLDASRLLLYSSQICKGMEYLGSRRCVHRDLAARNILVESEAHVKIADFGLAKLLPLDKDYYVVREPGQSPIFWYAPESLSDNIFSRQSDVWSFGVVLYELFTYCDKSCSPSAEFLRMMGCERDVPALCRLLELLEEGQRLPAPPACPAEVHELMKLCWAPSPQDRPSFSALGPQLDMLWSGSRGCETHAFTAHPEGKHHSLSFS
Assay: In vitro JAK kinase assay (HTRF, phosphorylation of a biotinylated peptide), JAK3
Type: biochemical
Structures can show the parent of a compound that is named as a salt.
Grouping key: IC50. Bins: lower segment: < 0.1 µM; middle segment: ≥ 0.1 µM and < 0.4 µM; upper segment: ≥ 0.4 µM

INSERT INTO measurements (molecule, category_label) VALUES
  ('Clc1cnc2nc1Nc1cccc(c1)CCc1cc(ccn1)N2', 'lower segment'),
  ('Fc1cnc2nc1Nc1cccc(c1)CCc1ccnc(c1)N2', 'middle segment'),
  ('O=S1(=O)NCc2cccc(c2)Nc2nc(ncc2Cl)Nc2cccc1c2', 'middle segment'),
  ('O=S1(=O)Nc2cccc(c2)Nc2ncc(Cl)c(n2)Nc2cccc1c2 [Example C7, trifluoroacetate]', 'lower segment'),
  ('Clc1cnc2nc1Nc1cccc(c1)/C=C\c1cc(ccn1)N2', 'lower segment'),
  ('O=C1NCc2cccc(c2)Nc2ncc(Cl)c(n2)Nc2cccc1c2', 'middle segment'),
  ('O=C1NCc2cccc(c2)Nc2nc(ncc2Cl)Nc2cccc1c2 [Example C5, hydrochloride]', 'upper segment'),
  ('Cn1cc(CC(=O)Nc2ccc3cc2CCc2cccc(c2)Nc2ncc(Cl)c(n2)N3)c2ccccc21 [Example C37, trifluoroacetate]', 'upper segment'),
  ('Cc1nc(C)c(CC(=O)Nc2ccc3cc2CCc2cccc(c2)Nc2ncc(Cl)c(n2)N3)s1 [Example C43, trifluoroacetate]', 'upper segment'),
  ('Cc1[nH]c2ccccc2c1CC(=O)Nc1ccc2cc1CCc1cccc(c1)Nc1ncc(Cl)c(n1)N2 [Example C34, trifluoroacetate]', 'upper segment'),
  ('Fc1cnc2nc1Nc1cccc(c1)CCc1cncc(c1)N2 [Example C21, bis(trifluoroacetate)]', 'middle segment'),
  ('Clc1cnc2nc1Nc1cccc(c1)/C=C\c1cncc(c1)N2 [Example C20, bis(trifluoroacetate)]', 'lower segment'),
  ('O=C(Cc1nc2ccccc2[nH]1)Nc1ccc2cc1CCc1cccc(c1)Nc1ncc(Cl)c(n1)N2 [Example C44, bis(trifluoroacetate)]', 'upper segment');

----------
Biological target: human JAK2 (a.a. 828-1132) (Homo sapiens)
Construct: JAK2 (a.a. 828-1132); His tag (N); made in house; host or cells: insect cells (baculovirus)
Sequence (O60674 828-1132): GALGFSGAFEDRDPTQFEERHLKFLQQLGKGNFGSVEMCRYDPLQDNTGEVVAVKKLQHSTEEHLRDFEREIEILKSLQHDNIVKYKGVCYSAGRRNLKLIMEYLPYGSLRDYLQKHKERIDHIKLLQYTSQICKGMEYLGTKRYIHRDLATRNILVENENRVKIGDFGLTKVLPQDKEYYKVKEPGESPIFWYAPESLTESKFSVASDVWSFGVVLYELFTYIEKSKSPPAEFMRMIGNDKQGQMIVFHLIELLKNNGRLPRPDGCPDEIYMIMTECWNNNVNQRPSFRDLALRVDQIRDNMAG
Experiment: In vitro JAK kinase assay (HTRF, phosphorylation of a biotinylated peptide), JAK2
Format: biochemical
pIC50: −log10 of the molar value. Counter-ions that a name gives are not always drawn.
Criterion: pIC50 meeting or surpassing 7. Met: yes. Not met: no.

INSERT INTO assay_data (molecule, category_label) VALUES
  ('O=C(c1cccs1)N1Cc2cccc(c2)Nc2ncc(Cl)c(n2)Nc2cccc1c2', 'no'),
  ('O=C(Cc1nc2ccccc2[nH]1)Nc1ccc2cc1CCc1cccc(c1)Nc1ncc(Cl)c(n1)N2 [Example C44, bis(trifluoroacetate)]', 'yes'),
  ('O=C(Cc1csc2ccccc12)Nc1ccc2cc1CCc1cccc(c1)Nc1ncc(Cl)c(n1)N2 [Example C35, trifluoroacetate]', 'no'),
  ('Clc1cnc2nc1Nc1cccc(c1)CCc1cc(ccn1)N2', 'yes'),
  ('O=C(c1ccccc1)N1Cc2cccc(c2)Nc2ncc(Cl)c(n2)Nc2cccc1c2', 'yes'),
  ('O=C1Nc2cccc(c2)Nc2nc(ncc2Cl)Nc2cccc1c2 [Example C2, hydrochloride]', 'no');

----------
Target: human JAK3 (a.a. 781-1124) (Homo sapiens, UniProt P52333)
Construct: JAK3 (a.a. 781-1124); His tag (N); made in house; host or cells: insect cells (baculovirus)
Test: In vitro JAK kinase assay (HTRF, phosphorylation of a biotinylated peptide), JAK3
Format: biochemical
Settings: method AA1 (3 μM ATP) or AA2 (1000 μM ATP), not stated per value
Counter-ions that a name gives are not always drawn.
Listed next: entries and their corresponding IC50.
MEASURED ATTRIBUTE: IC50 (µM)

INSERT INTO results (compound, reported_relation, experimental_value) VALUES
  ('O=C(Nc1ccc2cc1CCc1cccc(c1)Nc1ncc(Cl)c(n1)N2)C1CCN(S(=O)(=O)c2ccccc2)CC1 [Example A42, trifluoroacetate]', '=', 0.058),
  ('CC(C)(C)OC(=O)N1CCC(C(=O)Nc2ccc3cc2CCc2cccc(c2)Nc2ncc(Cl)c(n2)N3)CC1 [Example A27, trifluoroacetate]', '=', 0.124),
  ('CC(C)c1oncc1C(=O)N1CCC(CC(=O)Nc2ccc3cc2CCc2cncc(c2)Nc2ncc(Cl)c(n2)N3)CC1 [Example A218, bis(trifluoroacetate)]', '>', 0.2);

----------
Let's look at some compounds and their measured IC50.
Target: human JAK3 (a.a. 781-1124) (Homo sapiens)
Construct: JAK3 (a.a. 781-1124); His tag (N); made in house; host or cells: insect cells (baculovirus)
Experiment: In vitro JAK kinase assay (HTRF, phosphorylation of a biotinylated peptide), JAK3
Assay type: biochemical
Conditions: Table D1
Where a name gives a salt, the structure may show the parent alone.
MEASURED ATTRIBUTE: IC50 (µM)

INSERT INTO measurements (compound, tgt, units_text, reported_relation, experimental_value) VALUES
  ('Clc1cnc2nc1Nc1cccc(c1)CSc1cccc(c1)N2 [Example D2, trifluoroacetate]', 'human JAK3 (a.a. 781-1124) (Homo sapiens)', 'µM', '=', 0.013),
  ('O=C(Nc1cc2cc(c1)OCCSc1cccc(c1)Nc1nc(ncc1Cl)N2)c1ccno1 [Example D59, trifluoroacetate]', 'human JAK3 (a.a. 781-1124) (Homo sapiens)', 'µM', '=', 0.0071),
  ('Cc1cc(C(=O)Nc2cc3cc(c2)OCCSc2cccc(c2)Nc2nc(ncc2Cl)N3)no1 [Example D58, trifluoroacetate]', 'human JAK3 (a.a. 781-1124) (Homo sapiens)', 'µM', '=', 0.021),
  ('O=C(NCc1ccco1)N1CCC(CCOc2ccc3cc2CCc2cncc(c2)Nc2ncc(Cl)c(n2)N3)CC1 [Example D165, bis(trifluoroacetate)]', 'human JAK3 (a.a. 781-1124) (Homo sapiens)', 'µM', '>', 0.4),
  ('O=C(Nc1ccccc1)N1CCN(c2ccc3cc2CCc2cccc(c2)Nc2ncc(Cl)c(n2)N3)CC1 [Example D92, bis(trifluoroacetate)]', 'human JAK3 (a.a. 781-1124) (Homo sapiens)', 'µM', '=', 0.036),
  ('Cc1cc(C(=O)N2CCN(C(=O)COc3ccc4cc3CCc3cncc(c3)Nc3ncc(Cl)c(n3)N4)CC2)no1 [Example D251, bis(trifluoroacetate)]', 'human JAK3 (a.a. 781-1124) (Homo sapiens)', 'µM', '>', 0.4),
  ('N#Cc1ccc(C(=O)N2CCN(c3ccc4cc3CCc3cccc(c3)Nc3ncc(Cl)c(n3)N4)CC2)cc1 [Example D95, bis(trifluoroacetate)]', 'human JAK3 (a.a. 781-1124) (Homo sapiens)', 'µM', '=', 0.087),
  ('Cc1cc(C(=O)N2CCC(Nc3ccc4cc3CCc3cncc(c3)Nc3ncc(Cl)c(n3)N4)CC2)no1 [Example D160, tris(trifluoroacetate)]', 'human JAK3 (a.a. 781-1124) (Homo sapiens)', 'µM', '>', 0.4),
  ('O=C(Cc1ccccc1)Nc1cc2cc(c1)OCCSc1cccc(c1)Nc1nc(ncc1Cl)N2 [Example D64, trifluoroacetate]', 'human JAK3 (a.a. 781-1124) (Homo sapiens)', 'µM', '=', 0.0084),
  ('Cc1cc(C(=O)N2CCC[C@@H](CC(=O)Nc3ccc4cc3CCc3cncc(c3)Nc3ncc(Cl)c(n3)N4)C2)no1 [Example D208, bis(trifluoroacetate)]', 'human JAK3 (a.a. 781-1124) (Homo sapiens)', 'µM', '=', 0.064),
  ('Clc1cnc2nc1Nc1cccc(c1)CNCc1cccc(c1)N2 [Example D73, bis(trifluoroacetate)]', 'human JAK3 (a.a. 781-1124) (Homo sapiens)', 'µM', '=', 0.067),
  ('CS(=O)(=O)N1CC(CC(=O)Nc2ccc3cc2CCc2cncc(c2)Nc2ncc(Cl)c(n2)N3)C1 [Example D146, bis(trifluoroacetate)]', 'human JAK3 (a.a. 781-1124) (Homo sapiens)', 'µM', '>', 1),
  ('O=C(Cn1c(=O)oc2c3cc(cc21)Nc1nc(ncc1Cl)Nc1cccc(c1)CC3)Nc1ccccc1 [Example D185, trifluoroacetate]', 'human JAK3 (a.a. 781-1124) (Homo sapiens)', 'µM', '=', 0.196),
  ('CC(=O)N1CCN(c2cc(-c3cc4cc(c3)Nc3ncc(Cl)c(n3)Nc3cccc(c3)OCC4)ccn2)CC1 [Example D35, bis(trifluoroacetate)]', 'human JAK3 (a.a. 781-1124) (Homo sapiens)', 'µM', '=', 0.0077),
  ('N#Cc1ccc(NC(=O)N2CCN(c3ccc4cc3CCc3cccc(c3)Nc3ncc(Cl)c(n3)N4)CC2)cc1 [Example D93, bis(trifluoroacetate)]', 'human JAK3 (a.a. 781-1124) (Homo sapiens)', 'µM', '=', 0.069),
  ('O=C(CC1CN(C(=O)c2ccno2)C1)Nc1ccc2cc1CCc1cncc(c1)Nc1ncc(Cl)c(n1)N2 [Example D144, bis(trifluoroacetate)]', 'human JAK3 (a.a. 781-1124) (Homo sapiens)', 'µM', '>', 1),
  ('NC1CCN(c2ccc3cc2CCc2cccc(c2)Nc2ncc(Cl)c(n2)N3)C1 (centres unmarked) [Example D88, tris(trifluoroacetate)]', 'human JAK3 (a.a. 781-1124) (Homo sapiens)', 'µM', '=', 0.015),
  ('O=C(Nc1cccc(C(F)(F)F)c1)N1CCN(c2ccc3cc2CCc2cccc(c2)Nc2ncc(Cl)c(n2)N3)CC1 [Example D91, bis(trifluoroacetate)]', 'human JAK3 (a.a. 781-1124) (Homo sapiens)', 'µM', '=', 0.133),
  ('O=C(OCc1ccccc1)N1CCC(CCNc2ccc3cc2CCc2cncc(c2)Nc2ncc(Cl)c(n2)N3)CC1', 'human JAK3 (a.a. 781-1124) (Homo sapiens)', 'µM', '>', 0.4),
  ('Clc1cnc2nc1Nc1cccc(c1)OCCSc1cccc(c1)N2 [Example D15, trifluoroacetate]', 'human JAK3 (a.a. 781-1124) (Homo sapiens)', 'µM', '=', 0.135),
  ('CC(=O)N1Cc2cccc(c2)Nc2nc(ncc2Cl)Nc2cccc1c2 [Example D71, trifluoroacetate]', 'human JAK3 (a.a. 781-1124) (Homo sapiens)', 'µM', '=', 0.065),
  ('CC(=O)N1Cc2cccc(c2)Nc2ncc(Cl)c(n2)Nc2cccc(c2)C1 [Example D74, trifluoroacetate]', 'human JAK3 (a.a. 781-1124) (Homo sapiens)', 'µM', '=', 0.225),
  ('O=C(COc1ccc2cc1CCc1cncc(c1)Nc1ncc(Cl)c(n1)N2)N1CCN(c2noc3ccccc23)CC1 [Example D250, tris(trifluoroacetate)]', 'human JAK3 (a.a. 781-1124) (Homo sapiens)', 'µM', '>', 0.4),
  ('O=C(C[C@@H]1CCN(C(=O)Nc2ccccc2F)C1)Nc1ccc2cc1CCc1cncc(c1)Nc1ncc(Cl)c(n1)N2 [Example D135, bis(trifluoroacetate)]', 'human JAK3 (a.a. 781-1124) (Homo sapiens)', 'µM', '>', 1),
  ('O=S1(=O)Cc2cccc(c2)Nc2nc(ncc2Cl)Nc2cccc1c2 [Example D4, trifluoroacetate]', 'human JAK3 (a.a. 781-1124) (Homo sapiens)', 'µM', '=', 0.025),
  ('N#Cc1ccc2cc1OCCSc1cccc(c1)Nc1nc(ncc1Cl)N2 [Example D81, trifluoroacetate]', 'human JAK3 (a.a. 781-1124) (Homo sapiens)', 'µM', '=', 0.13);
